Ref: patent US9340521B2

# tgt: UniProt P13866
# assay-method-text: Inhibitory effects on human SGLT1 activities (14C-AMG uptake, sodium-dependent glucose transport assay)
# experimental-context: 37° C. for 2 h, single determinations
As shown below, each of these molecules has a reported pIC50 value.
# reply with the number alone; pIC50 is -log10 of concentration in mol/L

Record excerpt, results attached:
- CCOc1ccc(Cc2cc([C@@H]3O[C@H](CO)[C@@H](O)[C@H](O)[C@H]3O)c3c(c2Cl)CCCO3)cc1: 7.11
- OC[C@H]1O[C@@H](c2cc(Cc3ccc(C4CC4)cc3)c(Cl)c3c2CCCO3)[C@H](O)[C@@H](O)[C@@H]1O: 7.30
- COc1ccc(Cc2cc([C@@H]3O[C@H](CO)[C@@H](O)[C@H](O)[C@H]3O)c3c(c2Cl)CCO3)cc1: 7.46
- COc1ccc(Cc2cc([C@@H]3O[C@H](CO)[C@@H](O)[C@H](O)[C@H]3O)c3c(c2C)CCCC3)cc1: 7.98

Give its pIC50 value. Item: `COc1ccc(Cc2cc([C@@H]3O[C@H](CO)[C@@H](O)[C@H](O)[C@H]3O)c3c(c2Cl)OCCO3)cc1`
7.47

====

As shown below, each of these compounds has a reported IC50 value.
# tgt: Human SGLT2 (hSGLT2) (Homo sapiens (Human))
# Sequence (P31639 whole entry): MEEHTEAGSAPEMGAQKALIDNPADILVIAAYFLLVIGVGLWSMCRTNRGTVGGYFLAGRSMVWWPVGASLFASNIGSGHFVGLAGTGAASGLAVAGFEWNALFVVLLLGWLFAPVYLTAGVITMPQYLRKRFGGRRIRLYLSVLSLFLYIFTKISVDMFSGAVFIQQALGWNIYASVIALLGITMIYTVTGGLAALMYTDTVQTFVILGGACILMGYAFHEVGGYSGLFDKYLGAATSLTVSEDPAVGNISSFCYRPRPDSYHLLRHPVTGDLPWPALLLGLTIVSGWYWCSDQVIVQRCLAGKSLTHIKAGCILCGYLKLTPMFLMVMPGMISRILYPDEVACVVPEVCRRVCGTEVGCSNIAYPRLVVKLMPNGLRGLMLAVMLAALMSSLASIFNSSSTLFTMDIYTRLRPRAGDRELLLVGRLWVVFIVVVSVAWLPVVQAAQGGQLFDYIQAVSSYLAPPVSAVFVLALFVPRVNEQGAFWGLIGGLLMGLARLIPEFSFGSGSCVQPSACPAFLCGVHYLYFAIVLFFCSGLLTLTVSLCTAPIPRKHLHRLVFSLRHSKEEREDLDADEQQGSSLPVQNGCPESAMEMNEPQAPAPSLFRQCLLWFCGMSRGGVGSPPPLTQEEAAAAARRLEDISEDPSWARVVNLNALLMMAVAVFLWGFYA
# assay-method-text: Inhibitory effects on human SGLT2 activities (14C-AMG uptake, sodium-dependent glucose transport assay)
# experimental-context: hSGLT2-expressing CHO cells, 37° C. for 2 h, single determinations
Value expressed in nM; do not type the unit.

• CCc1ccc(Cc2cc([C@@H]3O[C@H](CO)[C@@H](O)[C@H](O)[C@H]3O)c3c(c2Cl)CCCC3)cc1 [Compound E043] = 0.49
• CCc1ccc(Cc2cc([C@@H]3O[C@H](CO)[C@@H](O)[C@H](O)[C@H]3O)c3c(c2Cl)OCCO3)cc1 [Compound E016] = 0.92
• OC[C@H]1O[C@@H](c2cc(Cc3ccc(C4CC4)cc3)c(Cl)c3c2CCS3)[C@H](O)[C@@H](O)[C@@H]1O [Compound E060] = 0.67
• COc1ccc(Cc2cc([C@@H]3O[C@H](CO)[C@@H](O)[C@H](O)[C@H]3O)c3c(c2Cl)CCCO3)cc1 [Compound E010] = 1.6
• CSc1ccc(Cc2cc([C@@H]3O[C@H](CO)[C@@H](O)[C@H](O)[C@H]3O)c3c(c2Cl)OCO3)cc1 [Compound E049] = 0.8

Give its IC50 value. Item: COc1ccc(Cc2cc([C@@H]3O[C@H](CO)[C@@H](O)[C@H](O)[C@H]3O)c3c(c2Br)CCC3)cc1 [Compound E001]
0.44

====

# tgt: Human SGLT1 (hSGLT1) (Homo sapiens (Human), UniProt P13866)
# Sequence (P13866 whole entry): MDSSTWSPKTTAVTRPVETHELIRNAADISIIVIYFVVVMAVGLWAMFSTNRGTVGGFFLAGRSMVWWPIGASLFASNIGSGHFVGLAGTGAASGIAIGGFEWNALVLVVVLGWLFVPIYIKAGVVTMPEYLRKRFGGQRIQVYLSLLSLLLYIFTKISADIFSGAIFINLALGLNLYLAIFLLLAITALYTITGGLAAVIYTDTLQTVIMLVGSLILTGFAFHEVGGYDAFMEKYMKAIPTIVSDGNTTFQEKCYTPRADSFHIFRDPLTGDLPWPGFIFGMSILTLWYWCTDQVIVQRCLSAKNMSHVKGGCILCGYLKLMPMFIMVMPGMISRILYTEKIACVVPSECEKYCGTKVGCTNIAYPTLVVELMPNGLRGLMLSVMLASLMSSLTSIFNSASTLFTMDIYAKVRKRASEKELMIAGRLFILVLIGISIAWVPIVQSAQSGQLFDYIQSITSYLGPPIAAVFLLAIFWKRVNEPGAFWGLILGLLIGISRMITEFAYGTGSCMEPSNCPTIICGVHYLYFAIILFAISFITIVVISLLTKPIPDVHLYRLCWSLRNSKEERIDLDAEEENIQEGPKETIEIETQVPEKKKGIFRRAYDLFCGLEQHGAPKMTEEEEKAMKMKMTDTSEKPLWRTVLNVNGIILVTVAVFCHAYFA
# assay-method-text: Inhibitory effects on human SGLT1 activities (14C-AMG uptake, sodium-dependent glucose transport assay)
# Type: cell-based
# experimental-context: 37° C. for 2 h, single determinations
measured-endpoint: pIC50
# reply with the number alone; pIC50 is -log10 of concentration in mol/L

- Cc1ccc(Cc2cc([C@@H]3O[C@H](CO)[C@@H](O)[C@H](O)[C@H]3O)c3c(c2Cl)CCCO3)cc1: 8.04
- CCOc1ccc(Cc2cc([C@@H]3O[C@H](CO)[C@@H](O)[C@H](O)[C@H]3O)c3c(c2C)CCC3)cc1: 6.80
- CCOc1ccc(Cc2cc([C@@H]3O[C@H](SC)[C@@H](O)[C@H](O)[C@H]3O)c3c(c2Cl)OCCO3)cc1: 6.78

Give its pIC50 value. Item: `CCc1ccc(Cc2cc([C@@H]3O[C@H](CO)[C@@H](O)[C@H](O)[C@H]3O)c3c(c2Br)CCCC3)cc1`
7.96

Give its pIC50 value. Item: `OC[C@H]1O[C@@H](c2cc(Cc3ccc(C4CCC4)cc3)c(Cl)c3c2OCCC3)[C@H](O)[C@@H](O)[C@@H]1O`
6.79

Give its pIC50 value. Item: `OC[C@H]1O[C@@H](c2cc(Cc3ccc(C4CC4)cc3)c(Cl)c3c2CCS3)[C@H](O)[C@@H](O)[C@@H]1O`
7.39

====

# tgt: UniProtKB P31639
# assay-method-text: Inhibitory effects on human SGLT2 activities (14C-AMG uptake, sodium-dependent glucose transport assay)
# experimental-context: hSGLT2-expressing CHO cells, 37° C. for 2 h, single determinations
As shown below, each of these compounds has a reported pIC50 value.
# reply with the number alone; pIC50 is -log10 of concentration in mol/L

Record excerpt, results attached:
* COc1ccc(Cc2cc([C@@H]3O[C@H](CO)[C@@H](O)[C@H](O)[C@H]3O)c3c(c2Cl)CCS3)cc1 [Compound E030] | 8.64
* CCOc1ccc(Cc2cc([C@@H]3O[C@H](CO)[C@@H](O)[C@H](O)[C@H]3O)c3c(c2Cl)SCC3)cc1 [Compound E059] | 8.96

Would you kindly look at the next entry?
Give its pIC50 value. Item: CCOc1ccc(Cc2cc([C@@H]3O[C@H](CO)[C@@H](O)[C@H](O)[C@H]3O)c3c(c2Cl)CCC3)cc1 [Compound E006]
9.26
